Target: UniProtKB O14920
Sequence (O14920 whole entry, looked up): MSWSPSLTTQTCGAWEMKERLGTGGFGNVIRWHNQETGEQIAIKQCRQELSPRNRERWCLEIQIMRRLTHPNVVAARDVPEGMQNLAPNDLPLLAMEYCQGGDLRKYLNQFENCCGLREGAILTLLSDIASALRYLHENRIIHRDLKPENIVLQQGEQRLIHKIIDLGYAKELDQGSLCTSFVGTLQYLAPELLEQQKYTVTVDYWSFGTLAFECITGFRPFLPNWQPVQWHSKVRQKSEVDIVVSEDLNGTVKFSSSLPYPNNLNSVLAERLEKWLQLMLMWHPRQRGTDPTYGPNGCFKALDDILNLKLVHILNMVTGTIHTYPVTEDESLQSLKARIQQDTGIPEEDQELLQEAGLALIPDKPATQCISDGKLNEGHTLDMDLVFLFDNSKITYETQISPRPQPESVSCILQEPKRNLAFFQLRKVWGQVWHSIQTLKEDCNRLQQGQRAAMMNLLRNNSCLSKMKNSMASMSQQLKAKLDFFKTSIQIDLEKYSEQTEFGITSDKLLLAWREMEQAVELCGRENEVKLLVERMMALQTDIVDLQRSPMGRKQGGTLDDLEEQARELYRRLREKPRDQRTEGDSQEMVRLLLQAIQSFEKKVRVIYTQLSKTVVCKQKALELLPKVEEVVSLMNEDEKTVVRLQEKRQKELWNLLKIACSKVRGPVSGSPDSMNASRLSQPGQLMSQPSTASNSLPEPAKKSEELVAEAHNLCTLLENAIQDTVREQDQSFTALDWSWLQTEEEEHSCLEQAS
Experiment: radiometric filter-binding kinase assay
Details: compound 0.1 µM
ASSAY_METRIC: residual activity
Write the figure, then the unit, nothing else.

Use the examples below as a reference point.
O=C(Nc1ccccc1-c1cn2c(CN3CCNCC3)csc2n1)c1cnc2ccccc2n1    84%
O=C(N[C@@H](COc1ccc2[nH]c(=O)[nH]c2c1)c1ccccc1)c1cccn(Cc2ccc(F)c(F)c2)c1=O    102%
Cc1cc(NC(=O)c2cccc(NC(=O)/C=C/CN(C)C)c2)ccc1Nc1nccc(-c2cccnc2)n1    62%

Report measured residual activity on UniProtKB O14920; entry: COc1ccc(N(C(=O)Nc2c(C)cccc2C)c2cc(Nc3ccc(N4CCN(C)CC4)cc3)ncn2)c(OC)c1
95%
